target: PfENT1 (Plasmodium falciparum); construct: expressed in transfected cells; host or cells: fui1Δ yeast (Saccharomyces cerevisiae), co-expressing GFP; assay type: cell-based; details: primary HTS, compounds at 10 μM, 125 μM 5-FUrd
readout-name: Avg Normalized % maximal activity (%)
Provide the reading as a plain figure in %.

Use these answered entries as a reference point.
O=C(Nc1ccc2nc(NC(=O)c3ccco3)sc2c1)c1ccco1 = 97.22
Cc1ccccc1C(=O)Nc1ccc(-c2nc3ncccc3o2)cc1 = 4.70
Cc1nc(NC(=O)c2oc3ccccc3c2C)sc1C(=O)N(C)C = 17.36

Could you now look at the following compound, please?
// query Quick one: Avg Normalized % maximal activity of Cc1ccc2oc(-c3ccc(NC(=O)C4CCCO4)cc3)nc2c1 (stereo not shown) ?
// result 10.52

====

biological target: PfENT1 (Plasmodium falciparum); construct: expressed in transfected cells; host or cells: fui1Δ yeast (Saccharomyces cerevisiae), co-expressing GFP; format: cell-based; conditions: primary HTS, compounds at 10 μM, 125 μM 5-FUrd
readout-name: Avg Normalized % maximal activity (%)
Your answer should be a plain number; it is taken to be in %.

Take a look at these entries with their results.
O=C(Nc1cc(-c2nc3ccccc3[nH]2)ccc1Cl)c1ccco1 [compound 103] = 4.74
Cc1ccc(NC(=O)CSc2nccn2C)cc1C [compound 115] = 4.36
Fc1ccc(C2CC(c3ccco3)n3ncnc3N2)cc1 (stereo not shown) [compound 23] = 16.77

// query # query: Avg Normalized % maximal activity of entry O=C(Nc1ccc(-c2nnc(-c3ccco3)o2)cc1)C1CCCCC1 [compound 110]
// result 4.61

// query Then what about the molecule COc1ccc(OC)c(NC(=O)N2CCN(c3cc(Cl)ccc3C)CC2)c1 [compound 124] ?
// result 3.95

// query Also check CN(C(=O)c1cc2c(=O)n3ccccc3nc2n1C)C1CCCCC1 [compound 153]
// result 2.37

// query How about this molecule: CCOC(=O)c1cc(NC(=O)c2ccco2)ccc1N1CCOCC1 [compound 51]
// result 8.11

====

target: PfENT1 (Plasmodium falciparum); construct: expressed in transfected cells; host or cells: fui1Δ yeast (Saccharomyces cerevisiae), co-expressing GFP; assay type: cell-based; details: primary HTS, compounds at 10 μM, 125 μM 5-FUrd
readout-name: Avg Normalized % maximal activity (%)
The answer is to be given in %; state only the numeric part.

Example entries and their recorded answers appear below.
Cc1cc(=O)oc2cc(OCc3nnc(-c4ccccc4)o3)ccc12 = 31.72
CCC(C(=O)NCc1cccs1)c1ccccc1 (stereo not shown) [compound 165, 2-phenyl-N-(2-thienylmethyl)butanamide] = 2.01
CNC(=O)c1nc(-c2ccc(Cl)cc2)no1 = 4.86

// query Please report the recorded Avg Normalized % maximal activity for COc1ccc(-c2cc3ccccc3oc2=O)cc1NC(=O)c1cccs1 .
// result 6.98

====

target: PfENT1 (Plasmodium falciparum, UniProt Q8IDM6); construct: expressed in transfected cells; host or cells: fui1Δ yeast (Saccharomyces cerevisiae), co-expressing GFP; type: cell-based; conditions: primary HTS, compounds at 10 μM, 125 μM 5-FUrd
Sequence (Q8IDM6 whole entry): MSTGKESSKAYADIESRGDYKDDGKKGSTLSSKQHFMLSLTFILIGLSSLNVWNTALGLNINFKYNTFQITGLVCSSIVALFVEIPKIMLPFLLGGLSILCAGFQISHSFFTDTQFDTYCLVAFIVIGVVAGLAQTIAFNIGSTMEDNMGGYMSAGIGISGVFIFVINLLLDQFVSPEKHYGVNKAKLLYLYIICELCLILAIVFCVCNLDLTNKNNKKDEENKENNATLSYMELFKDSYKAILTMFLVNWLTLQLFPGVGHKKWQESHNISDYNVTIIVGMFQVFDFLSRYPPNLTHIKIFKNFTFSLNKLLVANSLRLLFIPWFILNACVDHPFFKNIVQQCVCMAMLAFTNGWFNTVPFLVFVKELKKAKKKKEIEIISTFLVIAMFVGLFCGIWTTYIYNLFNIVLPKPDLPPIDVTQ
Lab note: cut-off is 8%. Strictly less in Avg Normalized % maximal activity is T. Exactly 8% or more is F.

Study these solved cases before continuing.
CCc1ccc(C(C)NC(=O)c2nc[nH]n2)cc1 (centres unmarked) [compound 48] = F
O=c1c2c3nc4ccccc4nc3n(Cc3ccco3)c2ncn1Cc1ccco1 [compound 166] = T
O=C(Nc1ccc2oc(-c3cccnc3)nc2c1)c1ccc(Br)o1 [compound 85] = T

Turning to the following compound.
// query Given the entry COc1ccc(OC)c(NC(=O)CC2Nc3cc(C)c(C)cc3NC2=O)c1 (centres unmarked) [compound 171] , would its reported Avg Normalized % maximal activity be below 8%?
// result T

The reported measurements were obtained from patent US9695193B2.
